# System: dopamine D2 receptor (Rattus norvegicus)
# Construct: the receptor fraction prepared from the corpus striatum was molten and suspended; from tissue; host or cells: corpus striatum of SD rats (membrane fraction)
# Sequence (P61169 whole entry): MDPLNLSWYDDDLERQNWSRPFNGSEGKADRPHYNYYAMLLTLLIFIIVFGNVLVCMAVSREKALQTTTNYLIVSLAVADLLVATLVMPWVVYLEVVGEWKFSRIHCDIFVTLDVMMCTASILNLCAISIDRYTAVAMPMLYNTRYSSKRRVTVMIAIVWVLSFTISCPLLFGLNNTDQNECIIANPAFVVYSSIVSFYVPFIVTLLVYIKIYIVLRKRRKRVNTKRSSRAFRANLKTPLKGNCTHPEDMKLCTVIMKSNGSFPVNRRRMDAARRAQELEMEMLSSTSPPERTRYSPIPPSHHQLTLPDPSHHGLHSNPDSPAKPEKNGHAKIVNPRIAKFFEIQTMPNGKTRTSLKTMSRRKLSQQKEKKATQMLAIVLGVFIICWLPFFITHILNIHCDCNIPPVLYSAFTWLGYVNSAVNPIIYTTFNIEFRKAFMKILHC
# Assay notes: dopamine D2 receptor binding test ([3H] Spiperone Binding Test)
# Set-up: species or system SD rats
# Condition details: 1 nM [3H] Spiperone, rat corpus striatum, room temperature, 60 minutes; read-out: Ki value, dopamine D2 receptor
# Protocol: The compounds of the present invention were subjected to each of serotonin S2 receptor binding test, dopamine D2 receptor binding test and adrenergic α1 receptor binding test. The following reagents were used in this test. These reagents and samples were each dissolved in 10% ethanol before use. […] Each IC50 value was calculated by the probit method and each Ki value was determined by the following formula: [formula] […]
pKi: −log10 of the molar value.
Respond with criterion met for pKi values of 8 and above, criterion not met for values below.

1) CCN1CCN(c2cc(N)c(OC)c(-c3ccccc3)c2)CC1; criterion not met
2) CCN1CCN(c2cc(C(=O)OC)c(OC)c(-c3ccccc3)c2)CC1; criterion not met
3) CCN1CCN(c2ccc(OC(C)C)c(-c3ccccc3)c2)CC1; criterion not met
4) CCCc1cc(N2CCN(CC)CC2)cc(-c2ccc(C(F)(F)F)cc2)c1OC; criterion not met
5) CCOC(=O)CCc1cc(N2CCN(CC)CC2)cc(-c2ccccc2)c1OC; criterion not met

## Task pKi >= 8 for CCN1CCN(c2cc(-c3ccccc3)c(OC)c([S+](C)[O-])c2)CC1 (stereo not drawn) ?
## Result criterion not met

## Task pKi >= 8 for CCN1CCN(c2cc(COCc3ccccc3)c(Cl)c(-c3ccccc3C)c2)CC1 ?
## Result criterion not met

## Task pKi >= 8 for CCCCS(=O)(=O)Nc1cc(N2CCN(C)CC2)cc(-c2ccccc2Cl)c1Cl ?
## Result criterion met

## Task pKi >= 8 for CCN1CCN(c2cc(CCCO)cc(-c3ccccc3)c2OC)CC1 ?
## Result criterion not met

## Task pKi >= 8 for CCCCC(F)c1cc(N2CCN(CC)CC2)cc(-c2ccccc2)c1OC (stereo not drawn) ?
## Result criterion not met

## Task pKi >= 8 for CCN1CCN(c2cc(-c3ccccc3)c(OC)c([S+]([O-])Cc3ccccc3)c2)CC1 (stereo not drawn) ?
## Result criterion not met

## Task pKi >= 8 for CCCCS(=O)(=O)Nc1cc(N2CCN(CC)CC2)cc(-c2ccccc2C)c1Cl ?
## Result criterion met
